Source listed as paper PMC12152171.

- target.desc: Toxoplasma gondii prolyl-tRNA synthetase (TgProRS) (Toxoplasma gondii, UniProt S8G8I1)
- Construct: gene TGME49_219850; lacking OTS and ProXp-ala (amino acid residues 1–333 removed), N-terminal His10 tag
- Sequence (S8G8I1 entry or part of it): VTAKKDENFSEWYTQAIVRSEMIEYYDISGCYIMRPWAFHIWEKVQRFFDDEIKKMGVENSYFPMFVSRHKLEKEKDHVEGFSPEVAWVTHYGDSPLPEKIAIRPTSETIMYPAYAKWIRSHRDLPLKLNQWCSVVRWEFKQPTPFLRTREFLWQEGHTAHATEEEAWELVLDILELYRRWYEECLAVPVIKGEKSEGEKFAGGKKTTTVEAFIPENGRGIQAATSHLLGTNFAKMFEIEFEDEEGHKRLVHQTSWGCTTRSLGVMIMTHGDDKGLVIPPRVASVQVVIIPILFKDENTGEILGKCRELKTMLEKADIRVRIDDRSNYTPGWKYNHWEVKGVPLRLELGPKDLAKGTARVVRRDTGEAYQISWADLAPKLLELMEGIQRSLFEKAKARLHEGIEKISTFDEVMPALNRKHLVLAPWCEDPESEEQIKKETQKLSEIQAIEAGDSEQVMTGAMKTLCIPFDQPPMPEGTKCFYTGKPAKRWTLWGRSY
- assay.method.text: [3H]-proline aminoacylation inhibition assay with cytosolic tRNA(Pro) (TgtRNAn^Pro); IC50 […] with apicoplast TgtRNAa^Pro
- Type: biochemical
outcome.measure: pIC50
Hey, just a heads up that pIC50 is the negative log base 10 of the concentration in molar.

Hi! What's the reported pIC50 for O=C(C[C@H]1NCCC[C@@H]1O)Cn1cnc2cc(Br)c(Cl)cc2c1=O (racemic) [HF, Halofuginone] on Toxoplasma gondii prolyl-tRNA synthetase (TgProRS) (Toxoplasma gondii, UniProt S8G8I1)?
8.30
